- study.target: Cyno CD3εδ-Fc (cynomolgus) (UniProt Q95LI8)
- Sequence (chain, as listed by the source mutant, chain 1 of 2): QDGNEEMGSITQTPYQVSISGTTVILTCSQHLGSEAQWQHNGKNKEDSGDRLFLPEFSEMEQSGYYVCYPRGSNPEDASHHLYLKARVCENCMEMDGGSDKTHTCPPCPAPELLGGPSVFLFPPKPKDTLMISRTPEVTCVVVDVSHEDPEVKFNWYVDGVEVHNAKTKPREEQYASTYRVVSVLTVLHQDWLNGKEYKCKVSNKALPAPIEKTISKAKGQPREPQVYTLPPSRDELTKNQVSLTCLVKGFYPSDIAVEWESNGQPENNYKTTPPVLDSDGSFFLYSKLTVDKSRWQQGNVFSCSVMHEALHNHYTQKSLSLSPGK
- Sequence (Q95LI8 22-105, stated change not applied, chain 2 of 2): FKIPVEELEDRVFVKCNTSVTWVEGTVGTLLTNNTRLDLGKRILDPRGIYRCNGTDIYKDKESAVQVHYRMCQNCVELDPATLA
- assay: KD of scFv-Fc or IgG on cyno CD3εδ-Fc; instrument not given
Consider the following binders and their measured Kd readings.
measured.attribute: Kd (nM)

[[record]]
binder = "ADI-45974 (antibody, V domains shown, also called Ab10) VH: QVQLVQSGAEVKKPGASVKVSCKASGFNIKDYYMHWVRQAPGQRLEWIGWIDLENANTVYDAKFQGRVTITRDTSASTAYMELSNLRSEDTAVYYCARDAYGRYFYDVWGQGTLVTVSS VL: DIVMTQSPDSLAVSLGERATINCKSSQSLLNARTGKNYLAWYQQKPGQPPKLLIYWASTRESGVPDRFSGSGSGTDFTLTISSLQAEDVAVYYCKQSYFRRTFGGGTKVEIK"
measured_attribute = "Kd"
unit_annotation = "nM"
measurement = 2.1

[[record]]
binder = "ADI-45976 (antibody, V domains shown, also called Ab12) VH: QVQLVQSGAEVKKPGASVKVSCKASGFNIKDYYMHWVRQAPGQRLEWIGWIDLENANTVYDAKFQGRVTITRDTSASTAYMELSSLRSEDTAVYYCVRDAYGRYFYDVWGQGTLVTVSS VL: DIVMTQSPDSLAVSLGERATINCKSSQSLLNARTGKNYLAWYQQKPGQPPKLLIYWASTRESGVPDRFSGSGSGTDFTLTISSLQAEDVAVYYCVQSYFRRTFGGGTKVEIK"
measured_attribute = "Kd"
unit_annotation = "nM"
measurement = 1.8

[[record]]
binder = "ADI-45984 (antibody, V domains shown, also called Ab21) VH: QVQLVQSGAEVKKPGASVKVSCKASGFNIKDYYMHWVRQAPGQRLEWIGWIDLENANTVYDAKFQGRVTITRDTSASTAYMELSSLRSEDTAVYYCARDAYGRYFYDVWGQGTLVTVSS VL: DIVMTQSPDSLAVSLGERATINCKSSQSLLNARTRKNYLAWYQQKPGQPPKLLIYWASTRESGVPDRFSGSGSGTDFTLTISSLQAEDVAVYYCVQSYFRRTFGGGTKVEIK"
measured_attribute = "Kd"
unit_annotation = "nM"
measurement = 1.3

[[record]]
binder = "ADI-45979 (antibody, V domains shown, also called Ab16) VH: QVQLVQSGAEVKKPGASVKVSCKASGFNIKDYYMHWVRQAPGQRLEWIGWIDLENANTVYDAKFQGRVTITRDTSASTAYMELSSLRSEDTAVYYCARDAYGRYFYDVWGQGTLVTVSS VL: DIVMTQSPDSLAVSLGERATINCKSSQELLNARTGKNYLAWYQQKPGQPPKLLIYWASTRESGVPDRFSGSGSGTDFTLTISSLQAEDVAVYYCKQSYFRRTFGGGTKVEIK"
measured_attribute = "Kd"
unit_annotation = "nM"
measurement = 1.7

[[record]]
binder = "ADI-45980 (antibody, V domains shown, also called Ab17) VH: QVQLVQSGAEVKKPGASVKVSCKASGFNIKDYYMHWVRQAPGQRLEWIGWIDLENANTVYDAKFQGRVTITRDTSASTAYMELNSLRSEDTAVYYCARDAYGRYFYDVWGQGTLVTVSS VL: DIVMTQSPDSLAVSLGERATINCKSSQSLLNARTGKNYLAWYQQKPGQPPKLLIYWAFTRESGVPDRFSGSGSGTDFTLTISSLQAEDVAVYYCTQSYFRRTFGGGTKVEIK"
measured_attribute = "Kd"
unit_annotation = "nM"
measurement = 1.2

